Value source: patent US20110143948A1

- Test system: ncRNAs (SEQ ID NO 28-89)
- method summary: ncRNA arrays of melanocytes, keratinocytes, normal skin, melanoma cell lines and patient samples
- Set-up: species or system human
- assay conditions: melanoma patient 19 sample compared to normal skin
result type: ncRNA array expression, patient 19
Give only the figure.

Recorded results for 5 substances are shown here.
substance="SEQ ID NO 33 (TATTGAATGTACACAAGTAATGATGGAGTTTGATTATATGGTTCATTTTCATTTATCCTA; DNA, backbone and methylation of C not given here; listed as Homo sapiens)" measured=1.068
substance="SEQ ID NO 72 (AATTACATATATTTAGCAGGATTTTTATTTGCCGTGATATATAGGATAATTTAGTCTTTG; listed as DNA, chemistry not given here; listed as Homo sapiens)" measured=0.2985
substance="SEQ ID NO 58 (ATTTATTTGACTCTAAAATGACAATATAACAACTATAAGGAATTGATATGATGTCCTTAC; listed as DNA, chemistry not given here; listed as Homo sapiens)" measured=−1.471
substance="SEQ ID NO 73 (AAAGTTTCCCCATAATGCTCTTGCAAGTGAATATGAGCTGTGGTTTTTGCAGTGGAGTTA; listed as DNA, chemistry not given here; listed as Homo sapiens)" measured=3.505
substance="SEQ ID NO 49 (CGATGGCTTGTCATTGTCCCCTGTCCTGGAACAATAAAGCAAGTGCCTTGTGGTCTCACT; listed as DNA, chemistry not given here; listed as Homo sapiens)" measured=−2.094

Sure, the documented ncRNA array expression, patient 19 for SEQ ID NO 46 (CTATTGGAGTGCATATAAATTCTTGATAGCACCAGTTCTCAAATATGAGGTGTTAAAAAC; listed as DNA, chemistry not given here; listed as Homo sapiens) is 2.172

Sure, the documented ncRNA array expression, patient 19 for SEQ ID NO 88 (CTGTTGCTTATTCTGGGAGCCCAATCCTAGGCTGAGGGAGGTGGGCGCGGGGCTGTTTAA; listed as DNA, chemistry not given here; listed as Homo sapiens) is −0.5619

----------
- Test system: ncRNAs (SEQ ID NO 28-89)
- method summary: ncRNA arrays of melanocytes, keratinocytes, normal skin, melanoma cell lines and patient samples
- Parameters: species or system human
- assay conditions: melanoma patient 25 sample compared to normal skin
Entries get a class label from measured ncRNA array expression, patient 25. See ranges: low bin = under -2, mid bin = from -2 up to 2, high bin = 2 and over

Sample answers from the record:
substance="SEQ ID NO 56 (AAAAAATGAGGCAATCTCATCCCGAAACTATTTAAAACTACTCTCCTCTCTCTTGATAAA; listed as DNA, chemistry not given here; listed as Homo sapiens)" assigned_category="low bin"
substance="SEQ ID NO 89 (GGACACAGAGAGTCATGCACCAGCCCAGTGAGAACCAATTCAGAGCCAAATGCCAAACCC; listed as DNA, chemistry not given here; listed as Homo sapiens)" assigned_category="mid bin"
substance="SEQ ID NO 51 (ATGTATTTTAGGTAATAAGATTTTTATCAATTGTGTCTTTTTCTTTCTTTGCTTTCTATA; listed as DNA, chemistry not given here; listed as Homo sapiens)" assigned_category="high bin"
substance="SEQ ID NO 83 (TCAGTTTGATGATTGGGCTAGGGAATGAAGCTTTGCCACTTAGGAGATAAACCCCATAAC; listed as DNA, chemistry not given here; listed as Homo sapiens)" assigned_category="mid bin"
substance="SEQ ID NO 39 (TGATCCTGTAAATCATGTTTTTGTTTATTCCCCAACACTAACCTCACTCCTTTACTATTC; listed as DNA, chemistry not given here; listed as Homo sapiens)" assigned_category="mid bin"
substance="SEQ ID NO 58 (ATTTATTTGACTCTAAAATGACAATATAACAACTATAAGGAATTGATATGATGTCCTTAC; listed as DNA, chemistry not given here; listed as Homo sapiens)" assigned_category="mid bin"

Task: Into which category would you place SEQ ID NO 66 (TCCTTTTTATCTTGCACTCAGATGGTATTTTTAGAGATGTTTCTTCAATCAAAACAAGAT; listed as DNA, chemistry not given here; listed as Homo sapiens) ?
Output: high bin

Task: Into which category would you place SEQ ID NO 63 (CTCACACGCACCCTTTCACTGTTTCTTAGTAATTTGTTTGTCTACAGACACAGACGGGAA; listed as DNA, chemistry not given here; listed as Homo sapiens) ?
Output: low bin

Task: Into which category would you place SEQ ID NO 76 (TGTTTCTAATGCATACTGTGAAAGGAAAAAAAATCACAGTTATCCACCTTCTCAGGGCCT; listed as DNA, chemistry not given here; listed as Homo sapiens) ?
Output: mid bin

Task: Into which category would you place SEQ ID NO 77 (AAGTTTCCACGGCAGGTTCTCGTAGCACCTTTGGTCAAGAACTGAAGGGGCCTTTAGATG; listed as DNA, chemistry not given here; listed as Homo sapiens) ?
Output: low bin

Task: Into which category would you place SEQ ID NO 47 (GTATTTGTAATATTTGATTTGCTTTTAGCAGAGAAAACAATAAAAGAATCCAGGAAAAGT; listed as DNA, chemistry not given here; listed as Homo sapiens) ?
Output: low bin

Task: Into which category would you place SEQ ID NO 29 (TTAAATACATGTTTCTAATATTTTAGTGTTTTGTATTTAGGTTATTTATTCTTTGTATCT; DNA, backbone and methylation of C not given here; listed as Homo sapiens) ?
Output: high bin

----------
Reported ncRNA array expression, patient 4 is given for each of the following substances.
- Test system: ncRNAs (SEQ ID NO 28-89)
- method summary: ncRNA arrays of melanocytes, keratinocytes, normal skin, melanoma cell lines and patient samples
- Parameters: species or system human
- assay conditions: melanoma patient 4 sample compared to normal skin

Recorded results for 3 substances are shown here.
substance="SEQ ID NO 52 (TTTTCTTAGTCTTTTTACTTTTTCCATTATATTCTTTGATATATTTGAGAAAATGGCTTG; listed as DNA, chemistry not given here; listed as Homo sapiens)" result_type="ncRNA array expression, patient 4" measured=3.663
substance="SEQ ID NO 47 (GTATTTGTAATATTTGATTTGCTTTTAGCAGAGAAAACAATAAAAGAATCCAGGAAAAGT; listed as DNA, chemistry not given here; listed as Homo sapiens)" result_type="ncRNA array expression, patient 4" measured=−2.265
substance="SEQ ID NO 57 (TTGTTGTTTTGGGAGATACCCTGTTTAGCCTGAAAGGATTGAGATACTGTAATTGCTATG; listed as DNA, chemistry not given here; listed as Homo sapiens)" result_type="ncRNA array expression, patient 4" measured=1.613

Sure, the documented ncRNA array expression, patient 4 for SEQ ID NO 40 (GTTAAAGACTAAATTAGTGATTTGGGAGATCAAGCCAATGGGCTTGTCTAAAACCTAGTC; listed as DNA, chemistry not given here; listed as Homo sapiens) is 2.261

----------
Reported ncRNA array expression, patient 30 is given for each of the following substances.
- Test system: ncRNAs (SEQ ID NO 28-89)
- method summary: ncRNA arrays of melanocytes, keratinocytes, normal skin, melanoma cell lines and patient samples
- Design: species or system human
- assay conditions: melanoma patient 30 sample compared to normal skin

Recorded results for 3 substances are shown here.
substance="SEQ ID NO 40 (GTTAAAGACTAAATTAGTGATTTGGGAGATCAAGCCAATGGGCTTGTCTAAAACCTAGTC; listed as DNA, chemistry not given here; listed as Homo sapiens)" measured=0.7348
substance="SEQ ID NO 76 (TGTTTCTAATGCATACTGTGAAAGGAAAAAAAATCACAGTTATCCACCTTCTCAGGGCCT; listed as DNA, chemistry not given here; listed as Homo sapiens)" measured=0.4068
substance="SEQ ID NO 36 (TATTTGTGACTAACTGTATAACAGGTTATTTTAGTTTCTGTTCTGTGGGAAGTGTAAAGC; listed as DNA, chemistry not given here; listed as Homo sapiens)" measured=−1.698

Sure, the documented ncRNA array expression, patient 30 for SEQ ID NO 35 (GTTTCCATTGAAGAATATTACGCTCGGGGACAAGCCAGGTGCACGACCAAAAATTTAAAA; DNA, backbone and methylation of C not given here; listed as Homo sapiens) is −0.8323

Sure, the documented ncRNA array expression, patient 30 for SEQ ID NO 63 (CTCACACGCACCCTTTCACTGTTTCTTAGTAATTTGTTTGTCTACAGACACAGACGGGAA; listed as DNA, chemistry not given here; listed as Homo sapiens) is 1.622

Sure, the documented ncRNA array expression, patient 30 for SEQ ID NO 57 (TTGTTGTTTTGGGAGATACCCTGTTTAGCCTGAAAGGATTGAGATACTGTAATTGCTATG; listed as DNA, chemistry not given here; listed as Homo sapiens) is −0.5305
